Tested on: NCI's 60 human tumor cell line
method-description: NCI 60 human tumor cell line in vitro screen (average / whole panel)
Assay type: cell-based
condition-label: calculated from all cell lines tested, molar concentrations, read-out: average log GI50 (converted)
So basically every entry gets a class from its GI50, ranges being bin 0: < 200 nM; bin 1: ≥ 200 nM and < 6000 nM; bin 2: ≥ 6000 nM

Input: Could you tell me which band Cc1cnc2[nH]c(-c3cccc(F)c3)cc(=O)c2c1 [29'] belongs to?
Output: bin 0

Input: Which class is correct for the following compound? Cc1ccc2c(n1)N=C(c1ccc(Cl)cc1)CC2=O [Compound 65]
Output: bin 1

Input: Using the reported GI50, which band applies to COc1cccc(-c2cc(=O)c3c(C)ccnc3[nH]2)c1 [Compound 45] ?
Output: bin 0

Input: Exercise: read the entry COc1cccc(-c2cc(=O)c3cccnc3[nH]2)c1 [Compound 44] and state which class it falls under.
Output: bin 0

Input: Which GI50 category applies to O=c1cc(-c2cccc(Cl)c2)[nH]c2ncccc12 [32'] here?
Output: bin 1

Input: Which band does Cc1ccnc2c1C(=O)CC(c1ccc(Cl)cc1)=N2 [Compound 63] fall in?
Output: bin 1

Input: Determine which band this compound sits in: Cc1cc(C)c2c(n1)N=C(c1ccc(F)cc1)CC2=O [Compound 60]
Output: bin 2
